Origin of values: patent US20250326771A1

- System: Jurkat HIV-luciferase clones
- test_method_notes: Jurkat latency reversal assay
- Type: cell-based
- condition_label: Homo sapiens, 48 h; Jurkat latency reversal assay potency; read-out: Jurkat pEC50 (converted)

{"smiles_structure": "C[C@@H]1CN(CC(=O)N2CC(C)(C)c3[nH]c(=O)c(Cc4ccc(F)cc4)cc32)[C@@H](CN2CCO[C@H](COc3ccc(C(C)(C)c4ccc(C(C)(C)c5ccc(OC[C@@H]6CN(C[C@H]7CN[C@H](C)CN7CC(=O)N7CC(C)(C)c8[nH]c(=O)c(Cc9ccc(F)cc9)cc87)CCO6)cc5)cc4)cc3)C2)CN1", "EC50": "12.6 to 63.1 nM"}
{"smiles_structure": "C[C@@H]1CN(CC(=O)N2CC(C)(C)c3[nH]c(=O)c(Cc4ccc(F)cc4)cc32)[C@@H](CN2CCN(C(=O)c3ccc4cc(C(=O)N5CCN(C[C@H]6CN[C@H](C)CN6CC(=O)N6CC(C)(C)c7[nH]c(=O)c(Cc8ccc(F)cc8)cc76)[C@H](C)C5)ccc4c3)C[C@H]2C)CN1", "EC50": "12.6 to 63.1 nM"}
{"smiles_structure": "C[C@@H]1CN(CC(=O)N2CC(C)(C)c3[nH]c(=O)c(Cc4ccc(F)cc4)cc32)[C@@H](CN2CCN(C(=O)Cc3ccccc3CC(=O)N3CCN(C[C@H]4CN[C@H](C)CN4CC(=O)N4CC(C)(C)c5[nH]c(=O)c(Cc6ccc(F)cc6)cc54)[C@H](C)C3)C[C@H]2C)CN1", "EC50": "63.1 to 316 nM"}

---

- assay_system: XIAP-BIR3 (Homo sapiens (Human))
- Sequence (P98170 241-356): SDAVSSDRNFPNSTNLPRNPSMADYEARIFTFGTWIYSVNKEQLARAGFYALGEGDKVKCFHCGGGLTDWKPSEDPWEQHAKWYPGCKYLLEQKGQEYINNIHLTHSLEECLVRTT
- test_method_notes: BIR binding assay (FRET competition), XIAP BIR3
Measured IC50 by item
property: IC50

{"smiles_structure": "C[C@@H]1CN(CC(=O)N2CC(C)(C)c3[nH]c(=O)c(Cc4ccc(F)cc4)cc32)[C@@H](CN2CCN(Cc3cn(CC(=O)N4CCN(C[C@H]5CN[C@H](C)CN5CC(=O)N5CC(C)(C)c6[nH]c(=O)c(Cc7ccc(F)cc7)cc65)[C@H](C)C4)nn3)C[C@H]2C)CN1", "assay_system": "XIAP-BIR3 (Homo sapiens (Human))", "obs_value": "0.0158 to 0.0316 µM"}
{"smiles_structure": "C[C@@H]1CN(CC(=O)N2CC(C)(C)c3[nH]c(=O)c(Cc4ccc(Cl)cc4)cc32)[C@@H](CN2CCO[C@H](C(=O)NCc3ccc(CNC(=O)[C@@H]4CN(C[C@H]5CN[C@H](C)CN5CC(=O)N5CC(C)(C)c6[nH]c(=O)c(Cc7ccc(Cl)cc7)cc65)CCO4)cc3)C2)CN1", "assay_system": "XIAP-BIR3 (Homo sapiens (Human))", "obs_value": "0.00794 to 0.0158 µM"}
{"smiles_structure": "C[C@@H]1CN(CC(=O)N2CC(C)(C)c3[nH]c(=O)c(Cc4ccc(F)cc4)cc32)[C@@H](CN2CCN(C(=O)c3cccnc3-c3ncccc3C(=O)N3CCN(C[C@H]4CN[C@H](C)CN4CC(=O)N4CC(C)(C)c5[nH]c(=O)c(Cc6ccc(F)cc6)cc54)[C@H](C)C3)C[C@H]2C)CN1", "assay_system": "XIAP-BIR3 (Homo sapiens (Human))", "obs_value": "0.00138 to 0.00794 µM"}
{"smiles_structure": "C[C@@H]1CN(CC(=O)N2CC(C)(C)c3[nH]c(=O)c(Cc4ccc(F)cc4)cc32)[C@@H](CN2CCN(C(=O)COCCOCC(=O)N3CCN(C[C@H]4CN[C@H](C)CN4CC(=O)N4CC(C)(C)c5[nH]c(=O)c(Cc6ccc(F)cc6)cc54)[C@H](C)C3)C[C@H]2C)CN1", "assay_system": "XIAP-BIR3 (Homo sapiens (Human))", "obs_value": "0.0316 to 0.501 µM"}
{"smiles_structure": "C[C@@H]1CN(CC(=O)N2CC(C)(C)c3[nH]c(=O)c(Cc4ccc(F)cc4)cc32)[C@@H](CN2CCO[C@H](COc3ccc(OC[C@@H]4CN(C[C@H]5CN[C@H](C)CN5CC(=O)N5CC(C)(C)c6[nH]c(=O)c(Cc7ccc(F)cc7)cc65)CCO4)cc3)C2)CN1", "assay_system": "XIAP-BIR3 (Homo sapiens (Human))", "obs_value": "0.0158 to 0.0316 µM"}

---

- assay_system: XIAP-BIR3 (Homo sapiens (Human))
- test_method_notes: BIR binding assay (FRET competition), XIAP BIR3
- condition_label: fold separation (FS) for XIAP
property: XIAP BIR3 vs BIR2 separation window

{"smiles_structure": "C[C@@H]1CN(CC(=O)N2CC(C)(C)c3[nH]c(=O)c(Cc4ccc(F)cc4)cc32)[C@@H](CN2CCC(CCN(C)C(=O)c3ccc(C(=O)N(C)CCC4CCN(C[C@H]5CN[C@H](C)CN5CC(=O)N5CC(C)(C)c6[nH]c(=O)c(Cc7ccc(F)cc7)cc65)CC4)cc3)CC2)CN1", "obs_value": "++++ (FS>10,000)"}
{"smiles_structure": "C[C@@H]1CN(CC(=O)N2CC(C)(C)c3[nH]c(=O)c(Cc4ccc(Cl)cc4C(=O)N(C)C)cc32)[C@@H](CN2CCO[C@H](C(=O)NCc3ccc(CNC(=O)[C@@H]4CN(C[C@H]5CN[C@H](C)CN5CC(=O)N5CC(C)(C)c6[nH]c(=O)c(Cc7ccc(Cl)cc7C(=O)N(C)C)cc65)CCO4)cc3)C2)CN1", "obs_value": "++++ (FS>10,000)"}

---

- assay_system: cIAP2-BIR3 (Homo sapiens (Human))
- test_method_notes: BIR binding assay (FRET competition), cIAP2 BIR3
pIC50: −log10 of the molar value.
Measured pIC50 by item
property: pIC50

{"smiles_structure": "C[C@@H]1CN(CC(=O)N2CC(C)(C)c3ncc(Cc4ccc(C(F)(F)F)cc4)cc32)[C@@H](CN2CCO[C@H](COc3cccc(OC[C@@H]4CN(C[C@H]5CN[C@H](C)CN5CC(=O)N5CC(C)(C)c6ncc(Cc7ccc(C(F)(F)F)cc7)cc65)CCO4)c3)C2)CN1", "property": "pIC50", "obs_value": "6.30 to 7.50"}
{"smiles_structure": "CC(C)c1ccccc1Cc1cc2c([nH]c1=O)C(C)(C)CN2C(=O)CN1C[C@@H](C)NC[C@@H]1CN1CCO[C@H](C(=O)NCc2ccc(CNC(=O)[C@@H]3CN(C[C@H]4CN[C@H](C)CN4CC(=O)N4CC(C)(C)c5[nH]c(=O)c(Cc6ccccc6C(C)C)cc54)CCO3)cc2)C1", "property": "pIC50", "obs_value": "7.50 to 7.80"}
{"smiles_structure": "C[C@@H]1CN(CC(=O)N2CC(C)(C)c3[nH]c(=O)c(Cc4ccc(F)cc4)cc32)[C@@H](CN2CCO[C@H](COc3cc(C#N)cc(OC[C@@H]4CN(C[C@H]5CN[C@H](C)CN5CC(=O)N5CC(C)(C)c6[nH]c(=O)c(Cc7ccc(F)cc7)cc65)CCO4)c3)C2)CN1", "property": "pIC50", "obs_value": "8.10 to 8.86"}
{"smiles_structure": "C[C@@H]1CN(CC(=O)N2CC(C)(C)c3[nH]c(=O)c(Cc4ccc(F)cc4)cc32)[C@@H](CN2CCN(C(=O)Cc3ccccc3CC(=O)N3CCN(C[C@H]4CN[C@H](C)CN4CC(=O)N4CC(C)(C)c5[nH]c(=O)c(Cc6ccc(F)cc6)cc54)[C@H](C)C3)C[C@H]2C)CN1", "property": "pIC50", "obs_value": "7.50 to 7.80"}

---

- assay_system: cIAP2-BIR3 (Homo sapiens (Human), UniProt Q13489)
- Sequence (Q13489 238-349): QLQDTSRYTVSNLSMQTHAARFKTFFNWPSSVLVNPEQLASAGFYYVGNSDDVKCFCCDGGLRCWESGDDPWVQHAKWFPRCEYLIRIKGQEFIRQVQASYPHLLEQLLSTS
- test_method_notes: BIR binding assay (FRET competition), cIAP2 BIR3
Measured IC50 by item
property: IC50

{"compound": "C[C@@H]1CN(CC(=O)N2CC(C)(C)c3[nH]c(=O)c(Cc4ccc(F)cc4)cc32)[C@@H](CN2CCO[C@H](COc3ccc(CCc4ccc(OC[C@@H]5CN(C[C@H]6CN[C@H](C)CN6CC(=O)N6CC(C)(C)c7[nH]c(=O)c(Cc8ccc(F)cc8)cc76)CCO5)cc4)cc3)C2)CN1 [Example 58]", "obs_value": "7.94 to 15.8 nM"}
{"compound": "C[C@@H]1CN(CC(=O)N2CC(C)(C)c3[nH]c(=O)c(Cc4ccc(F)cc4)cc32)[C@@H](CN2CCC(CCOc3cccc(OCCC4CCN(C[C@H]5CN[C@H](C)CN5CC(=O)N5CC(C)(C)c6[nH]c(=O)c(Cc7ccc(F)cc7)cc65)CC4)c3)CC2)CN1 [Example 108]", "obs_value": "15.8 to 31.6 nM"}
{"compound": "C[C@@H]1CN(CC(=O)N2CC(C)(C)c3[nH]c(=O)c(Cc4ccc(F)cc4)cc32)[C@@H](CN2CCO[C@H](COc3ccc(F)c(OC[C@@H]4CN(C[C@H]5CN[C@H](C)CN5CC(=O)N5CC(C)(C)c6[nH]c(=O)c(Cc7ccc(F)cc7)cc65)CCO4)c3F)C2)CN1 [Example 74]", "obs_value": "1.38 to 7.94 nM"}
{"compound": "C[C@@H]1CN(CC(=O)N2CC(C)(C)c3[nH]c(=O)c(Cc4ccc(Cl)cc4Cl)cc32)[C@@H](CN2CCO[C@H](C(=O)NCc3ccc(CNC(=O)[C@@H]4CN(C[C@H]5CN[C@H](C)CN5CC(=O)N5CC(C)(C)c6[nH]c(=O)c(Cc7ccc(Cl)cc7Cl)cc65)CCO4)cc3)C2)CN1 [Compound 165]", "obs_value": "1.38 to 7.94 nM"}
